Where do these numbers come from? They come from patent US11453657B2.

Tested on: P. falciparum infected erythrocytes
Assay: P. falciparum growth inhibition assay ([3H]hypoxanthine incorporation)
Type: cell-based, Plasmodium falciparum
Conditions: Plasmodium falciparum, Erythrocyte, hydrochloride salt of the example; same assay; read-out: PfIC50 Media (uM), (HCl)
observed-property: IC50

Q: Return IC50 (reported value) for this molecule: `N[C@@H](COc1ccc(C(=O)N2CC[C@H](c3ccc(Cl)cc3)C2)cc1)Cn1cnnn1`
A: < 0.1 µM

Q: Return IC50 (reported value) for this molecule: `N[C@@H](COc1ccc(C(=O)N2CC[C@H](c3ccc(F)cc3)C2)cc1)Cn1ncnn1`
A: < 0.1 µM

----------
Tested on: P. falciparum infected erythrocytes
Test: P. falciparum growth inhibition assay ([3H]hypoxanthine incorporation)
Assay type: cell-based, Plasmodium falciparum
Details: Plasmodium falciparum, Erythrocyte, [3H]hypoxanthine incorporation, 0.5% parasitemia, 2% hematocrit, 48 h; read-out: PfIC50 Media
Entries and their IC50 values follow.

- N[C@@H](COc1ccc(C(=O)N2CC[C@H](c3ccc(F)cc3)C2)cc1)Cn1ncnn1: < 100 nM
- O=C(c1ccc(OC[C@@H](O)Cn2ncnn2)cc1)N1CC[C@@H](c2ccc(F)cc2)C1: 1000 to 5000 nM
- O=C(c1ccc(OC[C@H](O)Cn2cnnn2)cc1F)N1CC[C@H](c2ccc(Cl)cc2)C1: 100 to 500 nM
- O=C(c1ccc(OC[C@H](O)Cn2cccn2)cc1)N1CC[C@H](c2ccc(F)cc2)C1: < 100 nM
- N[C@@H](COc1ccc(C(=O)N2CC[C@H](c3ccc(F)cc3)C2)cc1)Cn1cnnn1: < 100 nM
- O=C(c1ccc(OC[C@H](O)Cn2ncnn2)cc1F)N1CC[C@H](c2ccc(Cl)cc2)C1: < 100 nM
- CC(O)(COc1ccc(C(=O)N2CC[C@H](c3ccc(F)cc3)C2)cc1)Cn1cnnn1 (single isomer, unassigned) [Example 10a]: 1000 to 5000 nM
- O=C(c1ccc(OC[C@@H](O)Cn2ncnn2)cc1)N1CC[C@H](c2ccc(F)cc2)C1: < 100 nM
- O=C(c1ccc(OC[C@H](O)Cn2ncnn2)cc1)N1CCC(c2ccccc2F)C1 (single isomer, unassigned) [Example 40a]: < 100 nM
- O=C(c1ccc(OC[C@@H](O)Cn2cnnn2)cc1)N1CC[C@H](c2ccc(F)cc2)C1: 100 to 500 nM

# input for lookup
Q: Return IC50 (reported value) for this compound: `N[C@@H](COc1ccc(C(=O)N2CC[C@H](c3ccc(Cl)cc3)C2)cc1)Cn1cnnn1`
A: < 100 nM

----------
System: P. falciparum infected erythrocytes
Test: P. falciparum growth inhibition assay ([3H]hypoxanthine incorporation)
Assay type: cell-based, Plasmodium falciparum
Conditions: [3H]hypoxanthine incorporation, 0.5% parasitemia, 2% hematocrit, 48 h; read-out: PfIC50 Media
observed-property: IC50

Guide cases for IC50, answers given:
- CC(O)(COc1ccc(C(=O)N2CC[C@H](c3ccc(F)cc3)C2)cc1)Cn1cnnn1 (stereo partly drawn) [Example 10b]: 1 to 5 µM
- COc1ccc(C2CCN(C(=O)c3ccc(OC[C@H](O)Cn4ncnn4)cc3)C2)cc1 (single isomer, unassigned) [Example 44a]: < 0.1 µM
- O=C(c1ccc(OC[C@H](O)Cn2ncnn2)cc1)N1CCC(c2ccc(F)cc2F)C1 (single isomer, unassigned) [Example 42b]: 0.1 to 0.5 µM
- N#Cc1ccc(C2CCN(C(=O)c3ccc(OC[C@H](O)Cn4ncnn4)cc3)C2)cc1 (single isomer, unassigned) [Example 43b]: 1 to 5 µM

Q: Return IC50 (reported value) for this compound: N#Cc1ccc(C2CCN(C(=O)c3ccc(OC[C@H](O)Cn4ncnn4)cc3)C2)cc1 (single isomer, unassigned) [Example 43a]
A: 0.1 to 0.5 µM

Q: Return IC50 (reported value) for this compound: CC(O)(COc1ccc(C(=O)N2CC[C@H](c3ccc(F)cc3)C2)cc1)Cn1ncnn1 (stereo partly drawn) [Example 9b]
A: 0.1 to 0.5 µM
